Tested on: diaphorase
Experiment: fluorescently labeled diaphorase binding to peptide array with or without excess FAD
Conditions: ratio without/with FAD calculated from measured binding values, 1 micromolar diaphorase
Mark T only when Meas. ratio stays strictly below 0.8. Values equal to the cut-off are F.

Example results:
RESIDUE SEQUENCE: RYAYFQHLGGSG [array peptide with C-terminal GSG linker]
CAT: F

RESIDUE SEQUENCE: HVYGLNLFDGSG [array peptide with C-terminal GSG linker]
CAT: T

RESIDUE SEQUENCE: DYFEGQLNHLGGS
CAT: T

Q: For this sequence, is Meas. ratio lower than 0.8? PRSFGYNNVGGSG [array peptide with C-terminal GSG linker]
Result: F

Q: Hello, is Meas. ratio of the following sequence strictly smaller than 0.8? YSALFGLQEDGSG [array peptide with C-terminal GSG linker]
Result: T

Q: For this sequence, is Meas. ratio lower than 0.8? EAVQKLLFSGSG [array peptide with C-terminal GSG linker]
Result: T

Q: Hi there! Is Meas. ratio for LAKQNRVEDGSS (LAKQNRVEDGSG) [array peptide with C-terminal GSG linker] below 0.8, do you know?
Result: T

Q: Threshold test, Meas. ratio < 0.8: LLGFLGGSG [array peptide with C-terminal GSG linker]
Result: T
